System: ACHN renal
Test: NCI-60 one-dose screen, 48 h (100 = growth as untreated, 0 = no growth, -100 = all killed)
Settings: 10 µM unless noted
Procedure: Growth inhibition of the ACHN human tumor cell line is measured as a screen for anti-cancer activity. Cells are grown in 96 well plates and exposed to the test compound for 48 hours. Compounds are tested at a single concentration, which is 10^-5 M for most compounds. The reported endpoint is percent growth (GI% or GIPRCNT), where numbers from 0 - 100% represent growth inhibition, and numbers from -100% - 0 represent cell death. For example, a value of 40 represents 60% growth inhibition. […]
Compounds without any hit were thinned out: in the full panel of roughly 83,000, 20% have a hit.
Below, each entry is listed alongside its reported growth.
endpoint: growth (%)

> print(dat)
                                   compound  value.reported
1  C/C=C/C1OCC(CC)C(CCC)O1 (stereo unspecified)             110
2       S=c1nc(-c2ccccn2)c(-c2ccccn2)n[nH]1             109
3                       CCOC(=O)C1(N)CCCCC1             104
4                       S=C=Nc1ccc2ccccc2c1             100
5  CC(C)N1CC(=O)N2CSCC2C1=O (stereo unspecified)             109
6  CSCC[C@@H]1C(=O)N(C)[C@H](C(C)(C)C)N1C(=O)c1ccccc1             110
